meta.source: ChEMBL document CHEMBL3400015

Provide the reported MIC of each item.
- Tested on: Staphylococcus epidermidis
- RUN_DESCRIPTION: Antimicrobial activity against methicillin-resistant Staphylococcus epidermidis isolate 455/11 after 18 hrs by twofold serial broth dilution method
- Format: functional
- CONDITION_NOTES: isolate 455/11, 18 h
Give bare numbers, in µg/mL.

>  <GIVEN_SMILES>
CC[C@@H](C(=O)[C@@H](C)[C@@H](O)[C@H](C)[C@@H]1O[C@@H]([C@@H](CC)C(=O)N(CCOC)CCOC)CC[C@@H]1C)[C@H]1O[C@]2(C=C[C@@H](O)[C@]3(CC[C@@](C)([C@H]4CC[C@](O)(CC)[C@H](C)O4)O3)O2)[C@H](C)C[C@@H]1C

>  <MEASURED_METRIC>
MIC

>  <UOM>
µg/mL

>  <RESULT_NUMBER>
128

$$$$

Consider the additional molecule presented here.
**Q:** State the recorded MIC for this entry: CC[C@@H](C(=O)[C@@H](C)[C@@H](O)[C@H](C)[C@@H]1O[C@@H]([C@@H](CC)C(=O)N(Cc2ccccc2)Cc2ccccc2)CC[C@@H]1C)[C@H]1O[C@]2(C=C[C@@H](O)[C@]3(CC[C@@](C)([C@H]4CC[C@](O)(CC)[C@H](C)O4)O3)O2)[C@H](C)C[C@@H]1C
**A:** 32
